Target: Leukotriene B4 receptor (Homo sapiens) (UniProt Q9NPC1+Q15722)
Sequence (Q15722 whole entry, looked up): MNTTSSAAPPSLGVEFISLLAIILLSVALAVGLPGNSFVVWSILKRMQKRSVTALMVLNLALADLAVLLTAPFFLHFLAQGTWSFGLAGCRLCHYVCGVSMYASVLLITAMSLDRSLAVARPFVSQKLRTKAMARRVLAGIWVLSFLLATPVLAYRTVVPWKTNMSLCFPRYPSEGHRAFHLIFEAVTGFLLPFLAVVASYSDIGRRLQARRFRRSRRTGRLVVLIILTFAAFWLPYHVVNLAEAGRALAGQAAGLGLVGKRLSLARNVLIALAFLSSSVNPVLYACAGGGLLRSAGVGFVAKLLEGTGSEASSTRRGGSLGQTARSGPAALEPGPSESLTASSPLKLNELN
Sequence (Q9NPC1 whole entry, looked up): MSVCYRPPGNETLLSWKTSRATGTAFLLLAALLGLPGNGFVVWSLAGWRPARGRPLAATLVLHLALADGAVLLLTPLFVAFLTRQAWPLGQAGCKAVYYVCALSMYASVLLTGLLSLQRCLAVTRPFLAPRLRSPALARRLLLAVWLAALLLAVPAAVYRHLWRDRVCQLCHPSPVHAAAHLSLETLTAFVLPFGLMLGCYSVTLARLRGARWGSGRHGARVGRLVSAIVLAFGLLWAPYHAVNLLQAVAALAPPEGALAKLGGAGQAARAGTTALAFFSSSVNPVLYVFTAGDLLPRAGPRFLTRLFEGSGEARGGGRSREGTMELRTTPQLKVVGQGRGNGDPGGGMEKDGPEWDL
Assay: Antagonistic activity against Leukotriene B4 receptor by using [3H]- LTB4 as a radioligand at a concentration of 10e-6 M
Type: functional
# inhibition >= 90% gives TRUE, anything below gives FALSE

Prompt: Evaluate `CSc1ccc(/C=C/CCCCOc2ccc(C(=O)c3cccc(C(=O)O)c3)cc2CCC(=O)O)cc1` : inhibition at minimum 90%?
Completion: FALSE

Prompt: Evaluate `O=C(O)CCc1cc(C(=O)c2cccc(C(=O)O)c2)ccc1OCCCCOc1ccccc1` : inhibition at minimum 90%?
Completion: FALSE

Prompt: Evaluate `CCCCCCCCCCOc1ccc(C(=O)c2cccc(C(=O)O)c2)cc1CCC(=O)O` : inhibition at minimum 90%?
Completion: FALSE

Prompt: Evaluate `O=C(O)CCc1cc(C(=O)c2cccc(C(=O)O)c2)ccc1OCCCCCCc1ccc(Cl)cc1` : inhibition at minimum 90%?
Completion: TRUE

Prompt: Evaluate `COc1ccc(/C=C/CCCCOc2ccc(C(=O)c3cccc(C(=O)O)c3)cc2CCC(=O)O)cc1` : inhibition at minimum 90%?
Completion: TRUE

Prompt: Evaluate `Cc1ccc(/C=C/CCCCOc2ccc(C(=O)c3cccc(C(=O)O)c3)cc2CCC(=O)O)cc1` : inhibition at minimum 90%?
Completion: TRUE

Prompt: Evaluate `CCCCCCCCCCCCCCOc1ccc(C(=O)c2cccc(C(=O)O)c2)cc1CCC(=O)O` : inhibition at minimum 90%?
Completion: FALSE

Prompt: Evaluate `COc1ccccc1/C=C/CCCCOc1ccc(C(=O)c2cccc(C(=O)O)c2)cc1CCC(=O)O` : inhibition at minimum 90%?
Completion: TRUE

Prompt: Evaluate C[S+]([O-])c1ccc(/C=C/CCCCOc2ccc(C(=O)c3cccc(C(=O)O)c3)cc2CCC(=O)O)cc1 (stereo unspecified) : inhibition at minimum 90%?
Completion: TRUE

Prompt: Evaluate `CCCCCCOc1ccc(C(=O)c2cccc(C(=O)O)c2)cc1CCC(=O)O` : inhibition at minimum 90%?
Completion: FALSE

Prompt: Evaluate `CCOc1ccc(C(=O)c2cccc(C(=O)O)c2)cc1CCC(=O)O` : inhibition at minimum 90%?
Completion: FALSE

Prompt: Evaluate `O=C(O)CCc1cc(C(=O)c2cccc(C(=O)O)c2)ccc1OCCCCS(=O)(=O)c1ccccc1` : inhibition at minimum 90%?
Completion: FALSE

Prompt: Evaluate `O=C(O)CCc1cc(C(=O)c2cccc(C(=O)O)c2)ccc1OCCCCCCc1ccc(F)cc1` : inhibition at minimum 90%?
Completion: FALSE

Prompt: Evaluate `COc1ccc(C(=O)c2cccc(C(=O)O)c2)cc1CCC(=O)O` : inhibition at minimum 90%?
Completion: FALSE

Prompt: Evaluate `O=C(O)CCc1cc(C(=O)c2cccc(C(=O)O)c2)ccc1OCCCCSc1ccccc1` : inhibition at minimum 90%?
Completion: FALSE

Prompt: Evaluate O=C(O)CCc1cc(C(=O)c2cccc(C(=O)O)c2)ccc1OCCCC[S+]([O-])c1ccccc1 (stereo unspecified) : inhibition at minimum 90%?
Completion: FALSE

Prompt: Evaluate `CCCCCCCCOc1ccc(C(=O)c2cccc(C(=O)O)c2)cc1CCC(=O)O` : inhibition at minimum 90%?
Completion: FALSE

Prompt: Evaluate `O=C(O)CCc1cc(C(=O)c2cccc(C(=O)O)c2)ccc1OCc1ccccc1` : inhibition at minimum 90%?
Completion: FALSE

Prompt: Evaluate `O=C(O)CCc1cc(C(=O)c2cccc(C(=O)O)c2)ccc1OCCCc1ccccc1` : inhibition at minimum 90%?
Completion: FALSE
